molecular target: Fes (UniProt P07332); assay: phosphorylation enrichment, bacterial display (enrichment ratio); higher = better substrate or ligand; peptides without Tyr show the background;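 further: 11-residue human phosphosite peptides and single-mutation variants displayed on the E. coli surface, counted by deep sequencing, each peptide's frequency after selection divided by its frequency in the unselected input library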;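 further: frequency after pTyr selection over input frequency; kinase dosed for 20-30% of maximal phosphorylation in three min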
Sequence (P07332 whole entry, looked up): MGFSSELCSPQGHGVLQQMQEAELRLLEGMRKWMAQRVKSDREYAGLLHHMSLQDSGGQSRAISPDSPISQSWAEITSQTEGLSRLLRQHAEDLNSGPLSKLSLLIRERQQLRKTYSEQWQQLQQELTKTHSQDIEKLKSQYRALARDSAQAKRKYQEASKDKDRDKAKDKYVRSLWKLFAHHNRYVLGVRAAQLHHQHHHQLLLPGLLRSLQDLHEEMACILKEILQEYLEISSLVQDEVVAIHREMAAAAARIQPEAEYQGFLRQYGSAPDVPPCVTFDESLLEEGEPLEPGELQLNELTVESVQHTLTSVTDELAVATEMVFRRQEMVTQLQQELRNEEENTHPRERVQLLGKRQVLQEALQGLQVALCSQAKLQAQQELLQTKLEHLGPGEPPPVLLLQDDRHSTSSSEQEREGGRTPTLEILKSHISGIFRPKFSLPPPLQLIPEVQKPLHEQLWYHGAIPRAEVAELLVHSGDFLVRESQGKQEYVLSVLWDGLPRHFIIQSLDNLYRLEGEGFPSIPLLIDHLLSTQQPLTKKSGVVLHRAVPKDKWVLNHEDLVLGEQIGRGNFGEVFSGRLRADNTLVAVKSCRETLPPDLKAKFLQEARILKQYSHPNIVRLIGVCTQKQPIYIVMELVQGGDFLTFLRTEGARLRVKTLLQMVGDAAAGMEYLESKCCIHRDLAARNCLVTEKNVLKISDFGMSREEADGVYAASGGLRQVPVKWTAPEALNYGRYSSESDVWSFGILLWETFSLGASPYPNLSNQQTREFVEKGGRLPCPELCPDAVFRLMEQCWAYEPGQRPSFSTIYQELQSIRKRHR
REPORTED ENDPOINT: phosphorylation enrichment
Respond numerically, and do not add a unit to the figure.

Look up phosphorylation enrichment with Fes (UniProt P07332) for this sequence: KELAPYDENCF [RPS19_Y48_W52C]
1.48

And GPKFGYDEIDN [ACOX1_Y232] ?
0.874

And EQFELHCEMGS [CBL_Y371_Y371H_YF] ?
1.49

And PLDGEYFTLPI [TP53_Y327_Q331P] ?
2.87

And FISVGYVDGTQ [HLA-B_Y51_D54G] ?
0.807

And LLKKMYLMLDN [STAT1_Y203] ?
0.996

And CCKNRYDKDKP [THAP1_Y14_G9C] ?
0.5

And GNHISYFQSDG [CACNA1C_Y1757_V1755I_YF] ?
0.918

And DDSSAYRSVDE [BCKDHA_Y345] ?
1.29

And RDIHDYIKHLG [UNC13C_Y308] ?
0.696

And HHIDFYKETTN [FGFR1_Y654_K656E_YF] ?
2.36

And RFLRGYRQHAF [HLA-A_Y137_D140H_YF] ?
1.34

And ADRTRYSAFGG [RBM4_Y361_A359T] ?
0.797

And KPLMPYMRYSR [SMARCE1_Y73] ?
0.761

Measured values drawn from the supplement of paper PMC10065799 for this set.
